# EXPERIMENTAL_SYSTEM: T1, biotinylated human DLL3 protein expressed as a human IgG1 fusion protein (human, UniProt Q9NYJ7 27-492, limits assumed, biotinylated)
# T1 sequence: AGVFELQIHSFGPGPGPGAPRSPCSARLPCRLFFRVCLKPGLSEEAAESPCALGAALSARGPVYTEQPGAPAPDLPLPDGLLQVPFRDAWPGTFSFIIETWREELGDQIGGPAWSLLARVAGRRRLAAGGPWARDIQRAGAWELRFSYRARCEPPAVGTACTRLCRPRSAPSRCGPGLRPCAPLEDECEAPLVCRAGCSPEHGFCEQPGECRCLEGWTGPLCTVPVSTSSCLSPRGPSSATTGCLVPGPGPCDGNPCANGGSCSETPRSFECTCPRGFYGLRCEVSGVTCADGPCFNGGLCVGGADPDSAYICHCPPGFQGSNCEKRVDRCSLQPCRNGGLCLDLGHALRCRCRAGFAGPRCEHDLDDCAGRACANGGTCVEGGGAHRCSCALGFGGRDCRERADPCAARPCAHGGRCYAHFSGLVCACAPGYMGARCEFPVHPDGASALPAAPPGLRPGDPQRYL
# METHOD_SUMMARY: Octet BLI, single 50 nM
EXPERIMENTAL_READOUT: pKd
Remember the convention: pKd equals -log10 of concentration in molar.

Query: So what's the measured pKd for this one? 4C03 anti-DLL3 trispecific protein (other, not shown: linker 1808, anti-albumin sdAb, linker 1808, anti-CD3 fragment, His6 1819) EVQLVESGGGLVQPGGSLTLSCAASGSKVSFMSMAWYRQAPGKKRELVAGISVDGSTDYIDSVKGRFTISRDNAKNSVYLQMNSLRAEDTAVYYCYAYRWRTRYTYWGQGTLVTVSS
Result: 8.18

Query: Here is the next binder: 2C04 anti-DLL3 trispecific protein (other, not shown: linker 1808, anti-albumin sdAb, linker 1808, anti-CD3 fragment, His6 1819) EVQLVESGGGLVQPGGSLTLSCVASGSTSSRNAMGWYRRAPGKQRELVAGISSDGSKLYADSVKGRFTISRDNAKNSVYLQMNSLRAEDTAVYYCYYFRTVLGSSMRYWGQGTLVTVSS
Result: 8.17

Query: How about this binder: 1D06 anti-DLL3 trispecific protein (other, not shown: linker 1808, anti-albumin sdAb, linker 1808, anti-CD3 fragment, His6 1819) EVQLVESGGGLVQPGGSLTLSCVASGSTSSINAMGWYRRAPGKQRELVAGISSDNSKVYADSVKGRFTISRDNAKNSVYLQMNSLRAEDTAVYYCYYFRTVHGSSMRYWGQGTLVTVSS
Result: 8.17

Query: For 3F05 anti-DLL3 trispecific protein (other, not shown: linker 1808, anti-albumin sdAb, linker 1808, anti-CD3 fragment, His6 1819) EVQLVESGGGLVQPGGSLTLSCAASGSKVSFLSMAWYRQAPGKKRELVAGISTDGSTDYIDSVKGRFTISRDNAKNSVYLQMNSLRAEDTAVYYCYAYRWTTRRTYWGQGTLVTVSS then?
Result: 8.12
